From: PubChem BioAssay (NCI)

# Test system: CAKI-1 renal
# procedure_details: NCI tumour cell line growth inhibition, 48 h
quantity_name: TGI

[in] Write down the reported TGI of COc1cc(C2SCCCCCCCCCCSC(c3ccc(O)c(OC)c3)SCCCCCCCCCCS2)ccc1O (stereo not given) , test system: CAKI-1 renal.
[out] > 100 µM

[in] Write down the reported TGI of COC/C=C\COC , test system: CAKI-1 renal.
[out] > 100 µM

[in] Field: TGI (CAKI-1 renal). Entry: COc1cc2c(cc1OC)C(=O)N(c1ccc(O)cc1)C2=O
[out] > 100 µM

[in] Observed TGI on CAKI-1 renal for CCC(=O)c1c(NOC2OCC(OC(C)=O)C(OC(C)=O)C2OC(C)=O)nc(OC)n(C)c1=O (stereo not given) , please.
[out] > 100 µM

[in] Report TGI for CC(=O)c1c(C)nc(SSc2nc(C)c(C(C)=O)c(-c3ccc(Cl)cc3)c2C#N)c(C#N)c1-c1ccc(Cl)cc1 tested on CAKI-1 renal.
[out] > 150 µg/mL

[in] Entry COc1cc2nc(SCc3cc(OC)c(OC)c(OC)c3)n(Cc3ccccc3)c(=O)c2cc1OC , system CAKI-1 renal: what TGI was measured?
[out] > 100 µM

[in] Query the reported TGI for CAKI-1 renal; item: Cn1c2ccccc2c2c3c(c4c5ccccc5n(C)c4c21)C(=O)NC3=O
[out] > 100 µM

====

# Tested on: HOP-62 NSCLC
# procedure_details: NCI tumour cell line growth inhibition, 48 h
quantity_name: TGI

1. O=c1c2cc(F)ccc2sc2c(N3CCNCC3)nc3ccc(F)cc3c12 | 3.85 µM
2. COC(=O)C1Cc2cc3c(cc2C1=O)CCCC3 (centres undefined) | > 100 µM
3. CC(C)CCC[C@@H](C)[C@H]1CC[C@H]2[C@@H]3CC[C@H]4C[C@@H](CCC=C(c5cc(Cl)c(O)c(C(=O)O)c5)c5cc(Cl)c(O)c(C(=O)O)c5)CC[C@]4(C)[C@H]3CC[C@]12C | > 100 µM
4. O=C(NCCN1CCOCC1)c1cn2c(ccc3sc4ccccc4c(=O)c32)n1 | > 100 µM

[in] Please report the recorded TGI for CCN1CCC(O)(c2ccc(Oc3ccc(F)cc3)cc2)C(C(=O)c2ccc(Oc3ccc(F)cc3)cc2)C1 (centres undefined) .
[out] 30.1 µM

[in] Need TGI, item Cc1cc2/c(=C\c3ccc(N(C)C)cc3)c3ccccc3n2[n+]1C
[out] 8.45 µM

[in] Reported TGI for CS(=O)(=O)OCCN(CCOS(C)(=O)=O)c1ccc(C=Nc2cccc(Cl)c2)cc1 : what is it?
[out] > 100 µM

[in] Which TGI is listed for COc1cc2ncn(-c3cc(OCc4ccccc4C(F)(F)F)c(C(=O)N(C)C)s3)c2cc1OC ?
[out] > 25 µM

[in] # query: TGI of entry O=C(Nc1cc(C(F)(F)F)ccc1Cl)c1ccc(NC2=C(Cl)C(=O)N(Cc3ccccc3)C2=O)cc1
[out] > 100 µM

====

Each entry below lists one item and its recorded GI50 value.
# System: SK-MEL-5 melanoma
# procedure_details: NCI tumour cell line growth inhibition, 48 h

1. CCCCCCCCOC(=O)CC[C@@H](C)[C@H]1CC[C@H]2[C@@H]3[C@H](OC(=O)CCN)C[C@@H]4C[C@H](OC(=O)CCN)CC[C@]4(C)[C@H]3C[C@H](OC(=O)CCN)[C@]12C | 19.4 µM

[in] Look up GI50: COc1cccc(/C(C#N)=C/c2nc3c(N4CCOCC4)nc(Cl)nc3n2C)c1
[out] 1.73 µM

[in] Name the reported GI50 value associated with the molecule CCOC(=O)c1[nH]c(Br)c(-c2ccc(OC)c(OC)c2)c1Br
[out] 0.0339 µM

[in] Which GI50 value belongs to CC[n+]1oc(C(=O)c2ccc(Cl)cc2)c(-c2ccccc2)c1-c1ccccc1.[Cl][Fe]([Cl])([Cl])[Cl] ?
[out] 19.5 µM
